System: GP2D cells
Test: GP2D proliferation assay (120 h) (colorectal cancer, G12D)
Type: cell-based
Decision: IC50 beneath 30 nM gives Satisfied; IC50 meeting or exceeding 30 nM gives Not satisfied.

molecule	class_name
C[C@H](Oc1cc(C2=CCNCC2)nc(-c2noc3c2CCC[C@@]32CCCc3sc(N)c(C#N)c32)n1)[C@@H]1CCCN1C [II-164]	Satisfied
C[C@H](Oc1cc(-n2ccc(C(=O)N[C@@H]3CCOC3)n2)nc(-c2noc3c2CCC[C@@]32CCCc3sc(N)c(C#N)c32)n1)[C@@H]1CCCN1C [II-192]	Not satisfied
C[C@H](Oc1cc(N2CCN(C)C3(CCOC3)C2)nc(-c2noc3c2CCC[C@@]32CCCc3sc(N)c(C#N)c32)n1)[C@@H]1C[C@@H](F)CN1C (stereo partly drawn) [II-151]	Not satisfied
C[C@H](Oc1cc(N2CCNC3(CC3)C2)nc(-c2onc3c2CCC[C@@]32CCCc3sc(N)c(C#N)c32)n1)[C@@H]1CCCN1C [I-5]	Satisfied
C[C@H](Oc1cc(-c2ccn(C[C@@H](C)O)n2)nc(-c2noc3c2CCC[C@@]32CCCc3sc(N)c(C#N)c32)n1)[C@@H]1CCCN1C [II-117]	Not satisfied
C[C@H](Oc1cc(-n2ccc(C(N)=O)n2)nc(-c2noc3c2CCC[C@@]32CCCc3sc(N)c(C#N)c32)n1)[C@@H]1CCCN1C [II-21]	Not satisfied
CN[C@H]1CCN(c2cc(O[C@@H](C)[C@@H]3CCCN3C)nc(-c3noc4c3CCC[C@@]43CCCc4sc(N)c(C#N)c43)n2)C1 [II-35]	Not satisfied
C[C@H](Oc1nc(-c2noc3c2CCC[C@@]32CCCc3sc(N)c(C#N)c32)nc(N2C[C@H](C)NC3(CC3)C2)c1F)[C@@H]1C[C@@H](F)CN1C [II-157]	Satisfied
C[C@H](Oc1cc(N2CC[C@H](N3CCCC3)C2)nc(-c2noc3c2CCC[C@@]32CCCc3sc(N)c(C#N)c32)n1)[C@@H]1CCCN1C [II-14]	Satisfied
C[C@H](Oc1cc(N2CC[C@@H](N(C)C)C2)nc(-c2noc3c2CCC[C@@]32CCCc3sc(N)c(C#N)c32)n1)[C@@H]1CCCN1C [II-47]	Not satisfied
C[C@H](Oc1cc(-c2ccn(C[C@@H](C)O)n2)nc(-c2onc3c2CCC[C@@]32CCCc3sc(N)c(C#N)c32)n1)[C@@H]1CCCN1C [I-30]	Not satisfied
C[C@@H]1CN(c2nc(-c3noc4c3CCC[C@@]43CCCc4sc(N)c(C#N)c43)nc(O[C@@H](C)[C@@H]3C[C@@H](F)CN3C)c2F)CC2(CC2)N1 [II-158]	Satisfied

====

Test system: AsPC-1 cells
Assay: AsPC-1 CTG proliferation assay (120 h) (pancreatic cancer, G12D)
Type: cell-based
Conditions: Homo sapiens, ASPC1
pIC50: −log10 of the molar value.
quantity: pIC50

> print(dat)
                                   compound  quantity  result.value
1  C[C@H](Oc1cc(-n2cccc3cnnc2-3)nc(-c2noc3c2CCC[C@@]32CCCc3sc(N)c(C#N)c32)n1)[C@@H]1CCCN1C [II-92]     pIC50          5.41
2  C[C@H](Oc1cc(-n2ccc(C(=O)N(C)C3COC3)n2)nc(-c2noc3c2CCC[C@@]32CCCc3sc(N)c(C#N)c32)n1)[C@@H]1CCCN1C [II-194]     pIC50          6.39
3  C[C@H](Oc1cc([C@H]2CCOC2)nc(-c2noc3c2CCC[C@@]32CCCc3sc(N)c(C#N)c32)n1)[C@@H]1CCCN1C [II-88]     pIC50          5.70

Entry source: patent US20240174690A1
